# inhibition per record follows
Study Target: 5-hydroxytryptamine receptor 1A (Homo sapiens) (UniProt P08908)
Sequence (P08908 whole entry): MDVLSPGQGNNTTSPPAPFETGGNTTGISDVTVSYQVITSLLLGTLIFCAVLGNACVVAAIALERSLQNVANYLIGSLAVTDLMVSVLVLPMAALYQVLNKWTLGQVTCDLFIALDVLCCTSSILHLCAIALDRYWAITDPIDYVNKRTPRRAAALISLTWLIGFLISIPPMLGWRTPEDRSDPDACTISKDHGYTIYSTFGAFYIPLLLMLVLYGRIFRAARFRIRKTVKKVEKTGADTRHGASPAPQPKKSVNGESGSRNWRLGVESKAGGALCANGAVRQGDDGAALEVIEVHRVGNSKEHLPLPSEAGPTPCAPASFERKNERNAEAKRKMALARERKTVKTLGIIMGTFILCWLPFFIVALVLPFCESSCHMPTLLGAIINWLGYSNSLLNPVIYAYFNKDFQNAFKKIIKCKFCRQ
Protocol Notes: Displacement of [3H]8-OH-DPAT from human recombinant 5HT1A receptor expressed in CHO cells at 10 uM after 60 mins by liquid scintillation counting
Type: cell-based
Readout Kind: inhibition

OC(CCN1CC=C(Cc2ccccc2)CC1)c1ccc(Cl)c(Cl)c1 (racemic) = 10.3%
OC(CCN1CC=C(Cc2ccccc2)CC1)c1csc2ccccc12 (racemic) = 33.4%
OC(CCN1CCC(O)(Cc2ccccc2)CC1)c1ccc(Cl)c(Cl)c1 (racemic) = 27.3%
OC(CCN1CC=C(Cc2ccccc2)CC1)c1cc2ccccc2s1 (racemic) = 65.4%
COc1ccc2cc(C(O)CCN3CC=C(Cc4ccccc4)CC3)ccc2c1Cl (racemic) = 46.5%
